- Test target: EGFR (Homo sapiens)
- Sequence (P00533 25-1210): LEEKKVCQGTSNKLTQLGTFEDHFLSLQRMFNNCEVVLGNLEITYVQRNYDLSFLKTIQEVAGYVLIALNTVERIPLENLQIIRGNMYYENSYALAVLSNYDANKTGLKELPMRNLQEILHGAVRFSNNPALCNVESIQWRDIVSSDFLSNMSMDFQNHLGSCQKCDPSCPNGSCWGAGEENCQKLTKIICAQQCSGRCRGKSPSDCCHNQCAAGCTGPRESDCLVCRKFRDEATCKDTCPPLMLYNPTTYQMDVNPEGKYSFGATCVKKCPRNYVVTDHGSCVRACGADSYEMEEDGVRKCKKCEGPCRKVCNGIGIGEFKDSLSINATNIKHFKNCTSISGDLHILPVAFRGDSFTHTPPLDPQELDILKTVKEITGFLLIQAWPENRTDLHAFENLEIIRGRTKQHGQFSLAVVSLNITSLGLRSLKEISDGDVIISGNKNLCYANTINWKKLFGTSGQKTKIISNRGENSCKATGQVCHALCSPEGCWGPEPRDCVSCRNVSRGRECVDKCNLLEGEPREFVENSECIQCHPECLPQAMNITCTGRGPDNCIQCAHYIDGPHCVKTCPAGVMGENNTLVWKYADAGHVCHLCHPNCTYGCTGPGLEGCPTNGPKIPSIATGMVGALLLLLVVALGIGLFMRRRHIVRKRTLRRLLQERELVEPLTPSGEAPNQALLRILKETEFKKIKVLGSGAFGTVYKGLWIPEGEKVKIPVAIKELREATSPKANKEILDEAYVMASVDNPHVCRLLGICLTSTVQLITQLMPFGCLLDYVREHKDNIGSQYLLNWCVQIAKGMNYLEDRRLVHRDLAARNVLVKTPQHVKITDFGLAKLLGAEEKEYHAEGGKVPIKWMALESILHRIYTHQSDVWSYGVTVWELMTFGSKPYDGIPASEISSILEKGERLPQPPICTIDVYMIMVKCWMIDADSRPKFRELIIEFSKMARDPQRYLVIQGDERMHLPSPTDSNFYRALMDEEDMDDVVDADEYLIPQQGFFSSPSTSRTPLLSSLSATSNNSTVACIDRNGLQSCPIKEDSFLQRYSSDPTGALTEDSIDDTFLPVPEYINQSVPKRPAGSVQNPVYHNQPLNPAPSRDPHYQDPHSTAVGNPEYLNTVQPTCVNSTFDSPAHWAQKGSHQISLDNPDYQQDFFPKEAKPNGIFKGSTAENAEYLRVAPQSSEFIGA
- Assay text: Inhibition of a panel of kinases, in vitro HotSpot kinase assay: EGFR
- Format: biochemical
- Measurement setup: D-compounds panel data; 1 μM ATP
Measurement name: IC50

Find the recorded IC50 belonging to CN1CCN(C(=O)c2ccc(Nc3nc(N4CCC[C@@H](n5ccc6cc(C7CC7)ccc6c5=O)C4)cnc3C(N)=O)cc2)CC1 and report it. 100 to 1000 nM

GET /values?readout=IC50&item= Cn1cc(Nc2nc(N3CCC[C@@H](n4ccc5cc(C6CC6)ncc5c4=O)C3)cnc2C(N)=O)cn1 1000 to 10000 nM

Looking for the measured IC50 of C[C@@H]1[C@H](NC(=O)c2ccc(C3CC3)cc2)CCCN1c1cnc(C(N)=O)c(Nc2ccc(OC3C[C@H]4CC[C@@H](C3)N4C)cc2)n1 (stereo partly drawn) [Example D-104] , can you help? 100 to 1000 nM

Look at this compound and give its reported IC50. C[C@@H]1[C@H](NC(=O)c2ccc(C3CC3)nc2)CCCN1c1cnc(C(N)=O)c(Nc2ccc(N3CCC(F)(F)CC3)cc2)n1 1000 to 10000 nM

Given the entry C[C@@H]1[C@H](NC(=O)c2ccc(C(C)(C)C)cc2F)CCCN1c1cnc(C(N)=O)c(Nc2cnn(C)c2)n1 , report its measured IC50. 1000 to 10000 nM

Returns the measured IC50 for the input compound. Input: COCCN(C)c1ccc(C(=O)N[C@@H]2CCCN(c3cnc(C(N)=O)c(Nc4cnn(C)c4)n3)[C@@H]2C)cc1 100 to 1000 nM

----------
- Test target: BTK-WT (Homo sapiens, UniProt Q06187)
- Construct: purified from insect cells as a full-length construct containing an N-terminal 6X-His tag; His6 (N); made in house; host or cells: insect cells (baculovirus Sf21 in Method B)
- Sequence (Q06187 whole entry): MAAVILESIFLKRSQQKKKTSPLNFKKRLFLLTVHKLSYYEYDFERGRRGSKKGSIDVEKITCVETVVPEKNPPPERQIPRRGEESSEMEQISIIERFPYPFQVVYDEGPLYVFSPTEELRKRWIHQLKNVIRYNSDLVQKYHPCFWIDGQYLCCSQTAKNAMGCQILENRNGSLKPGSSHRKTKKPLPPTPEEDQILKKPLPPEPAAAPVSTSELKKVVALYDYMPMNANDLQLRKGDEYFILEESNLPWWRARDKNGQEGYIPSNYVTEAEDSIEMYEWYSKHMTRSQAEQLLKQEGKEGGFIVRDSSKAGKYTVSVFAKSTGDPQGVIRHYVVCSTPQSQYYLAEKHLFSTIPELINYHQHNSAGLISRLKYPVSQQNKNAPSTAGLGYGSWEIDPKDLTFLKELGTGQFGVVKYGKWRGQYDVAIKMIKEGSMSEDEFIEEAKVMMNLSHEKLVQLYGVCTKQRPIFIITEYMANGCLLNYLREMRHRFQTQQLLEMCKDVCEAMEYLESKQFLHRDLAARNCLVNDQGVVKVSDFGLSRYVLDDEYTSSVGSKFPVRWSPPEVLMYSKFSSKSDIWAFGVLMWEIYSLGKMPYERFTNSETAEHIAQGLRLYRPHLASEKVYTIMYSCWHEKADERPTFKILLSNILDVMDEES
- Assay text: Btk in vitro inhibitory activity (one of Method A TR-FRET, Method B electrophoretic mobility shift, Method C radiometric filter binding)
- Format: biochemical
- Measurement setup: D-compounds panel data; read-out: IC50 BTK-WT
pIC50: −log10 of the molar value.
Measurement name: pIC50

State the recorded pIC50 for this entry: C[C@@H]1[C@H](NC(=O)c2ccc(N(C)CCO)cc2)CCCN1c1cnc(C(N)=O)c(Nc2cnn(C)c2)n1 [Example D-217] ≥ 8.00

Given Cc1nc2cc(C(=O)N[C@@H]3CCCN(c4cnc(C(N)=O)c(Nc5cnn(C)c5)n4)[C@@H]3C)ccc2o1 [Example D-238] , state its recorded pIC50. ≥ 8.00

Need pIC50 of C[C@@H]1[C@H](NC(=O)c2ccc3c(cnn3C)c2)CCCN1c1cnc(C(N)=O)c(Nc2ccc(N3CCN(C)CC3)cc2)n1 [Example D-234] , thanks. ≥ 8.00

Look at this molecule and give its reported pIC50. C[C@H]1C[C@H](NC(=O)c2ccc(C3CC3)cc2)CN(c2cnc(C(N)=O)c(Nc3cnn(C)c3)n2)C1 [Example D-34] 5.00 to 6.00

Look up pIC50 for this molecule: CC1(c2ccc(Nc3nc(N4CCC[C@@H](n5ccc6cc(C7CC7)ccc6c5=O)C4)cnc3C(N)=O)cc2)CCN(C2CCCC2)CC1 [Example D-177] ≥ 8.00

Which pIC50 is reported for this molecule? C[C@H]1CC[C@@H](NC(=O)c2ccc(C3CC3)cc2)CN1c1cnc(C(N)=O)c(Nc2ccc(N3CCN(C)CC3)cc2)n1 [Example D-154] ≥ 8.00

Endpoint output: pIC50 of C[C@@H]1[C@H](NC(=O)c2ccc(C3CC3)cc2)CCCN1c1cnc(C(N)=O)c(Nc2cc(CN3CCCCC3)ns2)n1 [Example D-140] . Value? ≥ 8.00

Which pIC50 is reported for this molecule? C[C@@H]1[C@H](NC(=O)c2ccc(C3CC3)cc2)CCCN1c1cnc(C(N)=O)c(Nc2ccc3c(c2)CCOC3)n1 [Example D-303] 7.00 to 8.00

For the molecule shown here, C[C@@H]1[C@H](NC(=O)c2ccc(N(C)C)cc2)CCCN1c1cnc(C(N)=O)c(Nc2ccc(C3(C)CCN(C4CCCC4)CC3)cc2)n1 [Example D-183] , give the reported pIC50. ≥ 8.00

Given the entry C[C@@H]1[C@H](NC(=O)c2cc(C3CC3)n[nH]2)CCCN1c1cnc(C(N)=O)c(Nc2cnn(C)c2)n1 [Example D-252] , report its measured pIC50. ≥ 8.00

Given the molecule C[C@@H]1[C@H](NC(=O)c2ccc(C3CC3)cc2)CCCN1c1cnc(C(N)=O)c(Nc2cnn(CCO)c2)n1 [Example D-281] , what is its reported pIC50? ≥ 8.00

Quick check: pIC50 of Cn1cc(Nc2nc(N3CCC[C@@H]4[C@H]3CCN4C(=O)c3ccccc3)cnc2C(N)=O)cn1 (racemic) [Example D-54] ? 7.00 to 8.00

Quick check: pIC50 of CN1CCN(C(=O)c2ccc(Nc3nc(N[C@H]4CC[C@H](NC(=O)N(C)C)CC4)cnc3C(N)=O)cc2)CC1 [Example D-69] ? 7.00 to 8.00

----------
Task for the reader: assign each of the following compounds its reported IC50.
- Test target: ITK (Homo sapiens, UniProt Q08881)
- Sequence (Q08881 1-620): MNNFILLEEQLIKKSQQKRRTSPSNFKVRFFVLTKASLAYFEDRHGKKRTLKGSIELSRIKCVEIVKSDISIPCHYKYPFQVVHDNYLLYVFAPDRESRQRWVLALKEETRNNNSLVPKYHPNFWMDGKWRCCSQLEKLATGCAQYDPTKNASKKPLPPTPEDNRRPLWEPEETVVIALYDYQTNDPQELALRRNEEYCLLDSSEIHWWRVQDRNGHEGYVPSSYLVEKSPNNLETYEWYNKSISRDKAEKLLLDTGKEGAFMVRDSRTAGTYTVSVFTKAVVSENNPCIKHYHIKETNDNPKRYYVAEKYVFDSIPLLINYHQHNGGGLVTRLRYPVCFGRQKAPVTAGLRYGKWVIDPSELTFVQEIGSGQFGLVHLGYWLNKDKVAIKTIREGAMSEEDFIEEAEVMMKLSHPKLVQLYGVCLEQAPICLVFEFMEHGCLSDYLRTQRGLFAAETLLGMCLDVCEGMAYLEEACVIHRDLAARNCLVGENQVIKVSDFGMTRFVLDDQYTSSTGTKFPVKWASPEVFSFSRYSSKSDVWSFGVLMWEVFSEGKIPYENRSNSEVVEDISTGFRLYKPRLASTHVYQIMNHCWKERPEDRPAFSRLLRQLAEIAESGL
- Assay text: Inhibition of a panel of kinases, in vitro HotSpot kinase assay: ITK
- Type: biochemical
- Measurement setup: D-compounds panel data; 1 μM ATP

Recorded IC50 of CCN(C)C(=O)N[C@@H]1CCCN(c2cnc(C(N)=O)c(Nc3cnn(C)c3)n2)[C@@H]1C , please. 1 to 10 µM

# query: IC50 of entry C[C@@H]1[C@H](NC(=O)c2ccc(C3CC3)cc2)CCCN1c1cnc(C(N)=O)c(Nc2cn[nH]c2)n1 0.1 to 1 µM

IC50 lookup needed for CN1CCN(C(=O)c2ccc(Nc3nc(N[C@H]4CC[C@@H](NC(=O)N(C)C)CC4)cnc3C(N)=O)cc2)CC1 , thanks. 1 to 10 µM

Entry C[C@@H]1CC[C@H](NC(=O)c2ccc(C3CC3)cc2)CN1c1cnc(C(N)=O)c(Nc2ccc(N3CCN(C)CC3)c(F)c2)n1 has what IC50? 0.1 to 1 µM

----------
- Test target: LCK (Homo sapiens, UniProt P06239)
- Sequence (P06239 whole entry): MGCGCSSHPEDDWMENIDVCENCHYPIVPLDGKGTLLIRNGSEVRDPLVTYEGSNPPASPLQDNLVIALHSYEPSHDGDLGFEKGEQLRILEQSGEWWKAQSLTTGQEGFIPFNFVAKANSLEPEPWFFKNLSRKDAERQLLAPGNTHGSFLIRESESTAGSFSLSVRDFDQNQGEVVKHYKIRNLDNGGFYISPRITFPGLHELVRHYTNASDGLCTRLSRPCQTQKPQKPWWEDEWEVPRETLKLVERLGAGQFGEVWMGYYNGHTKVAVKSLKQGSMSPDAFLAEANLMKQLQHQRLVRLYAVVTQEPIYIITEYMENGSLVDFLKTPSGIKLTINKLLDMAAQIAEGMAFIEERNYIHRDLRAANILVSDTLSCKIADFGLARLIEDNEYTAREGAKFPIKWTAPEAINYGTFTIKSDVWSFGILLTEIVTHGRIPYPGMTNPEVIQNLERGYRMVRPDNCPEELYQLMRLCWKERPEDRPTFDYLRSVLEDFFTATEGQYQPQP
- Assay text: Inhibition of a panel of kinases, in vitro HotSpot kinase assay: LCK
- Format: biochemical
- Measurement setup: D-compounds panel data; 1 μM ATP; read-out: IC50 LCK
pIC50: −log10 of the molar value.
Measurement name: pIC50

May I ask what pIC50 has been recorded for Cn1cc(Nc2nc(N3CCC[C@@H]4[C@H]3CCN4C(=O)c3ccc(C4CC4)cc3)cnc2C(N)=O)cn1 [Example D-44] ? 6.00 to 7.00

What value of measured pIC50 is listed for C[C@@H]1[C@H](NC(=O)c2ccc(C3CC3)cc2)CCCN1c1cnc(C(N)=O)c(Nc2cnn(C)c2)n1 [Example D-135] ? 6.00 to 7.00

Find the recorded pIC50 belonging to Cn1cc(Nc2nc(N3CCC(F)(F)[C@H](NC(=O)c4ccc(C5CC5)cc4)C3)cnc2C(N)=O)cn1 [Example D-192] and report it. < 5.00

Tell me the measured pIC50 of C[C@@H]1[C@H](NC(=O)c2cc3n(n2)CCC3)CCCN1c1cnc(C(N)=O)c(Nc2cnn(C)c2)n1 [Example D-263] , please. 7.00 to 8.00

----------
- Test target: LCK (Homo sapiens)
- Assay text: Inhibition of a panel of kinases, in vitro HotSpot kinase assay: LCK
- Assay type: biochemical
- Measurement setup: Table 13, A compounds; 1 μM ATP; read-out: IC50 LCK
pIC50: −log10 of the molar value.
Measurement name: pIC50

Query the reported pIC50 for LCK (Homo sapiens); item: C[C@@H]1[C@H](NC(=O)c2ccc(C3CC3)cc2Cl)CCCN1c1cnc(C(N)=O)c(Nc2ccc(N3CCN(C)CC3)cc2)n1 7.00 to 8.00

API: value(readout=pIC50, system=LCK (Homo sapiens)) for record CN1CCN(C(=O)c2ccc(Nc3nc(N4CCC[C@@H](n5ccc6cc(C7CC7)ccc6c5=O)C4)cnc3C(N)=O)cc2)CC1 6.00 to 7.00

Lab request: please report pIC50 under test system LCK (Homo sapiens) for C[C@@H]1[C@H](NC(=O)c2ccc(C3CC3)cn2)CCCN1c1cnc(C(N)=O)c(Nc2ccc(N3CCN(C)CC3)cc2)n1 6.00 to 7.00

Under LCK (Homo sapiens): pIC50 value of COCCn1cc(Nc2nc(N3CCC[C@@H](NC(=O)c4ccc(C5CC5)cc4)[C@H]3C)cnc2C(N)=O)cn1 ? 6.00 to 7.00

Hello, I am looking for reported pIC50 with LCK (Homo sapiens) for CN1CCN(c2ccc(Nc3nc(N4CCC[C@@H](n5ccc6cc(C7CC7)ccc6c5=O)C4)cnc3C(N)=O)cc2)CC1 . Could you help? 6.00 to 7.00

// map C[C@@H]1[C@H](NC(=O)c2ccc(C3CC3)cc2F)CCCN1c1cnc(C(N)=O)c(Nc2ccc(N3CCN(C4CCCC4)CC3)cc2)n1 to recorded pIC50 (system: LCK (Homo sapiens)) 6.00 to 7.00
